# Assayed Target: EGFRvIII, full length, expressed by transfected cells (NR6 M, H1477, 300.19/EGFRvIII) (human, UniProt P00533 298-1210)
# Experimental Protocol: cell-based or functional assay
Quantity Name: FACS Geometric mean, With glutathione 37° C.

SC-EGFRvIII-XG2-170 (antibody, human IgG1, V domains shown, XenoMax-derived from an XMG2 mouse; also called SC170; sc170) VH: QVQLQQSGPGLVKPSQTLSLTCAISGDSVSSNNAAWNWIRQSPARGLEWLGRTYYRSKWYNDYVVSVKSRITINPDTSKNQFSLQLNSVTPEDTAVYYCVRATAFDYWGQGTLVTVSS VL: AIVLTQTPLSSPVTLGQPASISCRSSQSLVHRDGNTYLSWLQQRPGQPPRLLIYKISNRFSGVPDRFSGSGAGTDFTLKISRVEPDDVGVYYCMHTTQLPWTFGQGTKVEIK    7.75 geometric mean
SC-EGFRvIII-XG1-139 (antibody, V domains shown, also called SC139; sc139) VH: EVQVLESGGGLVQPGGSLRLSCAASGFTFSSYAMSWVRQAPGKGLEWVSAISGSGGSTNYADSVKGRFTISRDNSKNTLYLQMNSLRAEDTAVYYCAGSSGWSEYWGQGTLVTVSS VL: DIQMTQSPSSLSASVGDRVTITCRASQGIRNNLAWYQQKPGKAPKRLIYAASNLQSGVPSRFTGSGSGTEFTLIVSSLQPEDFATYYCLQHHSYPLTSGGGTKVEIK    19.2 geometric mean
AB-EGFRvIII-XG1-095 (antibody, V domains shown, also called SC95; sc95) VH: QVQLQESGPFLVKPSQTLSLTCTVSGGSISSGGYYWSWIRQHPGKGLEWIGFIYYRGNTYYNPSLKSRVTISVDTSKNQFSLKLSSVTAADTAVYYCARDGYCSRTGCYGGWFDPWGQGTLVTVSP VL: DIVMTQTPLSSPVTLGQPASISCRSSQSLIHTDGNIYLSWLQQRPGQPPRLLIYKISNRFSGVPDRFSGSGAGTDFTLKISRVEAEDVGVYYCMQGTQFPITFGQGTRLEIK    17.8 geometric mean
